system: NCI-H23 lung; test: NCI tumour cell line growth inhibition, 384-well format; in the data active = GI50 below about 0.43 µM; inactive = the rest
Classes used: active, inactive

compound: Cc1ccc(S(=O)(=O)Oc2ccc3sc4cccc(NCCN(C)C)c4c(=O)c3c2)cc1
labelValue: inactive
//
compound: COc1cccc2c1C(=O)c1c(O)c3c(c(O)c1C2=O)C[C@@](O)(C(C)=O)C[C@@H]3OC1CC(N)C(O)C(C)O1 (some centres undefined)
labelValue: active
//
compound: NC(N)=Nc1ccc(-n2nc(C(F)(F)F)cc2-c2ccc3c(ccc4ccccc43)c2)cc1
labelValue: inactive
//
compound: CCN1C(=O)N(c2c(F)c(OC)cc(OC)c2F)Cc2cnc3[nH]c(CN4CCOCC4)cc3c21
labelValue: inactive
